system: RPMI-8226 leukemia; assay: NCI-60 one-dose screen, 48 h; conditions: 10 µM unless noted
Compounds without any hit were thinned out: in the full panel of roughly 83,000, 20% have a hit. Calls of active or inactive are those of the source. How the source made its calls: active means growth percent below 10; inactive means the rest.
Allowed answers: active, inactive

// query Short answer needed: outcome of this test for Nc1nnc2cc(F)ccc2n1 ?
// result inactive

// query For NNc1ncnc2nc[nH]c12 , which call appears in the assay record?
// result inactive

// query Hello, I am checking results. What call was entered for OCCOc1ccc(-c2cc(-c3ccccn3)nc(-c3ccccn3)c2)cc1 ?
// result active

Okay, now this molecule:
// query For this molecule, state the assay outcome: C/C(O)=C(/C=N/C(=S)Nc1ccccc1)C(=O)Nc1ccccc1C
// result inactive

* * *

tested on: SR leukemia; experiment: NCI-60 one-dose screen, 48 h (100 = growth as untreated, 0 = no growth, -100 = all killed); settings: 10 µM unless noted
This is part of a sample that, as a whole, favours compounds with a hit. Of some 83,000 tested, about 20% had one in any assay.
Provide the reported growth of each item.
One number for each entry, in %.

Example entries begin here.
// query Please supply the value of reported growth for the item CCOC(=O)CSCCC#N
// result 94.2

// query Supply recorded growth for CCN(C(=O)Nc1ccccc1Cl)c1ccccc1 here.
// result 81.4

// query Return the recorded growth value; entry: CC1CN(CCO)CC(C)O1 (centres undefined)
// result 103

// query Give a short answer stating reported growth for CC(=O)NC(O)C(Cl)Cl (centres undefined) .
// result 97.2

// query Given the compound CCNC(=O)Oc1ccc[nH]c1=O , write its reported growth.
// result 76.4

// query Consider the compound C1CCc2onc(-c3noc4c3CCCCC4)c2CC1 and give its recorded growth.
// result 92.4

Batch request: growth per item, same order as input.
1. CC(=O)OC(C)c1cccc(C#N)c1 (centres undefined)
2. Nc1cc2ccccc2c(O)c1O

// result
1. 104
2. 0.498

// query Dear colleague, please send me the reported growth for C/C(=N\O)c1ccccn1 when you can.
// result 94.5

* * *

system: CCRF-CEM leukemia; assay: NCI-60 one-dose screen, 48 h (100 = growth as untreated, 0 = no growth, -100 = all killed); details: 10 µM unless noted
The panel holds about 83,000 compounds, 20% with a hit somewhere; the sample as a whole holds those more often. Active and inactive are the calls of the source. The calls were made as follows: active = growth percent below 10; inactive = the rest.
Parameter: growth

Solved entries (count: 5):
// query Consider the compound CC(CO)(CO)C(=O)O . State its measured growth.
// result 93.5% (inactive)

// query Read off the recorded growth for Cc1ccc(S(=O)(=O)Oc2ccc3sc4c(CO)ccc(NCCN(C)C)c4c(=O)c3c2)cc1
// result -27.9% [100 µM] (active)

// query Fill in reported growth for this entry: CC1(C)CC(=O)C=C(N)C1
// result 124% (inactive)

// query Please list growth recorded for the compound CCCCCC(=O)OCCC1CCCCC1
// result 83.8% (inactive)

// query Input Oc1ccc(N=Cc2ccc(OCc3ccccc3)cc2)cc1 , output reported growth.
// result 82.4% (inactive)

Batch request: growth for each of the following compounds.
1. O=Cc1ccc(O)c(O)c1
2. NC(=O)N1CCOCC1
3. Oc1cc(O)c2c(c1)O[C@H](c1ccc(O)c(O)c1)[C@@H](O)C2
4. C=CC1=NC(C)(C)CC(C)O1 (stereo unspecified)
5. Cc1cc2c(C(C)C)c(O)c(O)c(C=Nc3ccccc3[N+](=O)[O-])c2c(O)c1-c1c(C)cc2c(C(C)C)c(O)c(O)c(C=Nc3ccccc3[N+](=O)[O-])c2c1O
6. CC(=O)c1cccs1

// result
1. 57.8% (inactive)
2. 88.9% (inactive)
3. 94.4% (inactive)
4. 95.7% (inactive)
5. 35% (inactive)
6. 113% (inactive)

Hey, quick one: what's growth for each of these?
1. CCCC(=O)CC(=O)c1ccccc1
2. O=S(Cc1ccccc1)/C(=C/NC(=S)Nc1ccccc1)c1ccccc1 (stereo unspecified)
3. NCCCN1CCCC1=O

// result
1: 97.5% (inactive); 2: 102% (inactive); 3: 114% (inactive)

// input: 2 compounds below; output: growth for each
1. CCN(CC)c1ccc2nc3ccc(N=Nc4ccc(N(C)C)cc4)cc3[n+](-c3ccccc3)c2c1
2. CN(C)CCOC(=O)Nc1ccc(Cc2ccc(NC(=O)OCCN(C)C)cc2)cc1

// result
-21% (active)
51.3% [100 µM] (inactive)

* * *

test system: SF-268 CNS; test: NCI-60 one-dose screen, 48 h (100 = growth as untreated, 0 = no growth, -100 = all killed); conditions: 10 µM unless noted
Compounds without any hit were thinned out: in the full panel of roughly 83,000, 20% have a hit. Calls of active or inactive are those of the source. Rule for the calls: active = growth percent below 10; inactive = the rest.
Parameter: growth

Known results for compounds:
// query Output measured growth for this item: CCOC(=O)c1c(C)[nH]c(C)c1C=O
// result 101% (inactive)

// query Tell me growth reported for CCCCCCCCNC(=O)C(C)C
// result 104% (inactive)

// query Consider the compound C=CCS(C)(=O)=O and give its recorded growth.
// result 103% (inactive)

// query Answer with reported growth of COc1ccc(NNS(=O)(=O)O)cc1
// result 106% (inactive)

// query Consider the compound O=c1cc(C(F)(F)F)[nH]c(=S)[nH]1 and give its recorded growth.
// result 121% (inactive)

Look at each compound and report its growth.
1. COC1OC(COC(C)=O)C(OC(C)=O)C(OC(C)=O)C1OC(C)=O (stereo unspecified)
2. O=C(c1ccc(Cl)cc1)N1CCCCC1
3. Cn1c(=O)c2[nH]c(CCCCC(=O)O)nc2n(C)c1=O
4. Clc1cccc(Cl)c1C1CSc2ccccc2N=C1c1ccccc1 (stereo unspecified)
5. CCOC(=O)C(CCC#N)(CCC#N)C(=O)OCC

// result
["101% (inactive)", "104% (inactive)", "99.2% (inactive)", "73.4% (inactive)", "99.2% (inactive)"]

Report growth for each item below.
1. Cc1cccc2ccccc12
2. C=CCOc1ccc(Cl)cc1Cl

// result
102% (inactive)
104% (inactive)

Give one value of growth per listed compound.
1. Cc1ccc2nc(-c3ccc(N=Cc4ccccc4O)cc3)sc2c1
2. CC1CC2C3CCC4=CC(=O)CCC4(C)C3CCC2(C)C1(O)C(=O)CO (stereo unspecified)
3. C/C=C/C1OCC(CC)C(CCC)O1 (stereo unspecified)
4. Nc1ccn(C2CC(N)C(CO)O2)c(=O)n1 (stereo unspecified)
5. NC(=O)N1CCOCC1
6. O=[N+]([O-])c1ccc2[nH]c(=S)n(/C=C(/c3ccc(Cl)cc3Cl)S(=O)(=O)Cc3ccc(Cl)cc3Cl)c2c1
7. CC(=O)C1C(=O)C(=O)N(c2cccc([N+](=O)[O-])c2)C1=O (stereo unspecified)
8. CCC(/C=C\C(C)=O)CC

// result
1. 97.7% (inactive)
2. 121% (inactive)
3. 101% (inactive)
4. 102% (inactive)
5. 109% (inactive)
6. 97% (inactive)
7. 109% (inactive)
8. 106% (inactive)

Hey, can you go through the list below and give me growth for every item?
1. O=C(O)Cc1ccccn1
2. Nc1ccc(F)cc1F
3. N#Cc1ccc(OC(=O)Nc2cc(Cl)cc(Cl)c2)cc1
4. CCOC(=O)N[C@H]1CCc2cc(OC)c(OC)c(OC)c2-c2ccc(SC)c(=O)cc21
5. OCCOc1ccc(-c2cc(-c3ccccn3)nc(-c3ccccn3)c2)cc1

// result
["100% (inactive)", "109% (inactive)", "12.5% [100 µM] (inactive)", "23% (inactive)", "15% (inactive)"]

// query Tell me its growth given C=C1C(=O)C2CCC1C2 (stereo unspecified) as the entry.
// result 88.9% (inactive)

* * *

system: SF-539 CNS; test: NCI-60 one-dose screen, 48 h (100 = growth as untreated, 0 = no growth, -100 = all killed); conditions: 10 µM unless noted
This is part of a sample that, as a whole, favours compounds with a hit. Of some 83,000 tested, about 20% had one in any assay.
I'd be grateful if you could share measured growth for these entries.
One number for each entry, in %.

Record excerpt, results attached:
// query Look up growth of CCOC(=O)CNC and report it.
// result 99.7

// query Determine from records and report growth for CCOC(=O)C(=O)CC(=O)c1ccccc1
// result 100

// query Give reported growth value for O=S(=O)(c1ccc(NC(=S)NCc2cccnc2)cc1)N1CCCCC1
// result 31.9

// query Tell me its growth given CC1CCC(C(C)(C)[N+](C)(C)C)CC1 (stereo not given) as the entry.
// result 96

Now consider a different compound.
// query Dear colleague, please send me the reported growth for CC(=O)N=c1ccc2nc3c(cc(N)c4ccccc43)oc-2c1 when you can.
// result -71.2

Attribution: PubChem BioAssay (NCI)
